Tested on: Hs-578T
TEST_NAME: NCI tumour cell line growth inhibition, 48 h
The source made the active and inactive calls. Rule as the data show it: active = GI50 up to about 1.1 µM and inactive = higher.
Please answer using one outcome listed in active, inactive

# count of solved cases: 5
1. CN(C)Cc1cc(C(C)(C)C)ccc1-c1ccc(C(C)(C)C)cc1CN(C)C	inactive
2. CCN(CC)c1ccc2cc(-c3nc4ccccc4n3C)c(=O)oc2c1	active
3. O=C1OC2C=CCC1C2 (configuration not stated)	inactive
4. CN(C)CCCNc1nnc(NCCCN(C)C)c2c(=O)c3sccc3[nH]c12	inactive
5. NC(=O)C(=CNC(N)=S)C(N)=O	inactive

Query block: What was the test verdict on `COc1cc(OC)c(OC)cc1/C=C/c1nc2ccccc2s1` ?
Result block: inactive

Query block: Cool, now CC1=NN(C(=O)CC(=O)Nc2ccccc2C)C(=O)C1/N=N\c1ccc(S(=O)(=O)c2ccc(/N=N/C3C(=O)N(C(=O)CC(=O)Nc4ccccc4C)N=C3C)cc2)cc1 (configuration not stated)
Result block: inactive

Query block: Cool, now CCSC(=O)/C=C1\CN(C(=O)OC(C)(C)C)C1C(=O)OC(C)(C)C (configuration not stated)
Result block: inactive

Query block: Cool, now `C/C(=C/CNc1ncnc2c1ncn2CCC(=O)O)CO`
Result block: inactive

----------
System: NCI/ADR-RES
TEST_NAME: NCI tumour cell line growth inhibition, 48 h
Calls of active or inactive are those of the source. Rule as the data show it: active = GI50 up to about 1.1 µM and inactive = higher.
Entries and their GI50 values follow.

Query block: Find the recorded GI50 belonging to C=C(CCC(C(=O)O)C1CCC2(C)C3=C(CCC12C)C1(C)CCC(O)C(C)(C)C1CC3)C(C)C (stereo not given) and report it.
Result block: 19.3 µM (inactive)

Query block: Cool, now `N#Cc1c(-c2cccc(Br)c2)cc(-c2ccc(Cl)cc2)nc1N`
Result block: 22.2 µM (inactive)

Query block: Cool, now `O=c1n(N=[S+]([O-])(c2ccccc2)c2ccccc2)c(=O)n2n1C1C=CC2CC1`
Result block: > 100 µM (inactive)

Query block: Cool, now `c1ccc2c(c1)CCc1c-2n(CCN2CCCCC2)c2ccccc12`
Result block: 16.8 µM (inactive)

Query block: Cool, now `COC(=O)c1c(C)[nH]c2c1C(=O)C(=O)c1nc(C)c(C)nc1-2`
Result block: 12.7 µM (inactive)

----------
Tested on: NCI/ADR-RES
TEST_NAME: NCI tumour cell line growth inhibition, 48 h
Active and inactive are the calls of the source. No stated cut-off is given here; in the data, active = GI50 up to about 1.1 µM and inactive = higher.
Please answer using one outcome listed in t for active, f for inactive

# count of solved cases: 3
1) OC(CCN1CCCCC1)(c1ccccc1)c1ccccc1 [PRIDINOL]	f
2) O=[N+]([O-])c1ccc(/N=N\c2c(O)c(S(=O)(=O)O)cc3cc(S(=O)(=O)O)ccc23)cc1	f
3) Cc1cn(C2CC(N/C(=N/C#N)NCC3OC(n4cnc5c(N)ncnc54)CC3O)C(CO)O2)c(=O)[nH]c1=O (stereo unspecified)	f

Query block: What was the test verdict on `NC(=O)C(=CNC(N)=S)C(N)=O` ?
Result block: f

Query block: Cool, now `O=C(O)c1ccc(NCc2nc3cc4ccccc4cc3[nH]2)cc1`
Result block: f

Query block: Cool, now CC(C)(C)C(=O)OCC1C(=O)OCC1C(=O)N1Cc2cc3ccccc3nc2C1 (stereo unspecified)
Result block: f

Query block: Cool, now `Cc1c(C(=O)C(=O)c2ccccc2)c(C)c(C(=O)C(=O)c2ccccc2)c(C)c1C(=O)C(=O)c1ccccc1`
Result block: f

Query block: Cool, now CCOC1=NC(O)c2cccn2-c2sccc21 (stereo unspecified)
Result block: f

Query block: Cool, now `O=C1c2cccnc2-c2nccc3c2c1nc1cc(Br)ccc13`
Result block: t

Query block: Cool, now `O=c1oc2cc(O)ccc2c(O)c1C(c1ccccc1F)c1c(O)c2ccc(O)cc2oc1=O`
Result block: f

Query block: Cool, now `c1ccc2c(c1)Oc1cccc3cccc-2c13`
Result block: f

The origin of these recorded values is ChEMBL document CHEMBL1201862.
